Biological target: CDK9/cyclin T (Homo sapiens, UniProt P50750)
Sequence (P50750 whole entry): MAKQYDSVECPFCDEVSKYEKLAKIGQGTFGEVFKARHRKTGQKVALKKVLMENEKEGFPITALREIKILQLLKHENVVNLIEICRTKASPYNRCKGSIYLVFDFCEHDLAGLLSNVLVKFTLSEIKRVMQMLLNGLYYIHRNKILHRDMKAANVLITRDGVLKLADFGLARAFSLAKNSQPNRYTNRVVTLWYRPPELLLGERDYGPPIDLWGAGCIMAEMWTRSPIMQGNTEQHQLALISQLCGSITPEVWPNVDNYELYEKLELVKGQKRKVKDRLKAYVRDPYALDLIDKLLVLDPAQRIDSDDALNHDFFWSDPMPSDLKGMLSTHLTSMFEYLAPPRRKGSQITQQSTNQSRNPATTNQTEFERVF
Sequence (O60563 whole entry partner): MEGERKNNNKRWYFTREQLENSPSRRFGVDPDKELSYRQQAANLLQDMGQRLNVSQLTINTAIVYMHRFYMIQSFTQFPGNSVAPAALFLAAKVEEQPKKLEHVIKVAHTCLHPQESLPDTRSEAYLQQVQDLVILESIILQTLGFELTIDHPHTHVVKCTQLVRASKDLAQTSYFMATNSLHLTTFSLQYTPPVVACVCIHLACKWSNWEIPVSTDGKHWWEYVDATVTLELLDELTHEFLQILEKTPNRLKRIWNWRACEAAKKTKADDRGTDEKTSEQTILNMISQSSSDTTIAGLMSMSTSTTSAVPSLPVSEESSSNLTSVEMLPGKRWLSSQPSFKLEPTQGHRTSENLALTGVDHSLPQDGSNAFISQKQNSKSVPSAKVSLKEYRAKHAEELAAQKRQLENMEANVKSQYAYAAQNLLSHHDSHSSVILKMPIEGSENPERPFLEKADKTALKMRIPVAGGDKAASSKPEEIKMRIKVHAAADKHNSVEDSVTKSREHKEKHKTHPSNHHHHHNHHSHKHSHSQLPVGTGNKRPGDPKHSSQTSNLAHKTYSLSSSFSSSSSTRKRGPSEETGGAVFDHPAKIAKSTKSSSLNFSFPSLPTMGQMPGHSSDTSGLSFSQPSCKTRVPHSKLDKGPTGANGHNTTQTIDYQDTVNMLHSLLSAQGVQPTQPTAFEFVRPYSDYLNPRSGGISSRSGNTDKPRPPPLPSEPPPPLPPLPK
Assay: In vitro luminescent CDK9 kinase assay (Kinase-Glo MAX)
Format: biochemical
Settings: CDK9 IC50 as used for LE and LLE; read-out: IC50 (CDK9, Table 4)
# reported pIC50; entries follow
In simple prose, pIC50 is minus the logarithm base ten of a concentration in moles per litre.

{"columns": ["MOLECULE", "ASSAY SYSTEM", "ATTRIBUTE MEASURED", "VAL"],
 "data": [
  ["Cc1ccc(-c2nc3ccc(Cl)cc3c(=O)[nH]2)cc1", "CDK9/cyclin T (Homo sapiens, UniProt P50750)", "pIC50", 6.55]
]}

# pIC50 lookup, item COc1ccc(CNC(=O)CSc2nc3ccccc3c(=O)n2CCc2ccc(S(N)(=O)=O)cc2)cc1
6.48

Returns the measured pIC50 for the input compound. Input: NC(=O)CSc1nc2ccccc2c(=O)n1CCc1ccc(S(N)(=O)=O)cc1
6.34

* * *

Molecular target: CDK9/cyclin T (Homo sapiens)
Assay: In vitro luminescent CDK9 kinase assay (Kinase-Glo MAX)
Type: biochemical
Conditions: mean ± SD; read-out: CDK9 IC50
Known pIC50 of a selection of compounds
To interpret pIC50, take it as minus log10 of a concentration measured in moles per litre.

{"columns": ["MOLECULE", "ATTRIBUTE MEASURED", "VAL"],
 "data": [
  ["NS(=O)(=O)c1ccc(CCn2c(SCC(=O)Nc3ccccc3)nc3ccccc3c2=O)cc1", "pIC50", 6.38]
]}

Please report the recorded pIC50 for Cc1ccc(-c2nc3ccc(Cl)cc3c(=O)[nH]2)cc1 .
6.55

Which pIC50 is listed for O=c1[nH]c(-c2ccc(Cl)cc2)nc2ccc([N+](=O)[O-])cc12 ?
6.36

Find the recorded pIC50 belonging to COc1ccc(CNC(=O)CSc2nc3ccccc3c(=O)n2CCc2ccc(S(N)(=O)=O)cc2)cc1OC and report it.
6.64

* * *

Tested on: MCF-7 cell line
Test: MTT metabolic (antiproliferative) assay
Conditions: read-out: Cytotoxicity IC50, MCF-7, 48 h, mean ± SD
ATTRIBUTE MEASURED: pIC50
Scale for pIC50: -log10 of concentration given in mol/L; no unit attached.

Recorded pIC50, per entry:
{"columns": ["MOLECULE", "VAL"],
 "data": [
  ["Cc1ccc(-c2nc3ccc(Cl)cc3c(=O)[nH]2)cc1", 4.91],
  ["O=c1[nH]cnc2ccc(I)cc12", 5.41],
  ["NS(=O)(=O)c1ccc(CCn2c(SCC(=O)NCc3ccc(F)cc3)nc3ccccc3c2=O)cc1", 6.16]
]}

Entry NS(=O)(=O)c1ccc(CCn2c(=S)[nH]c3ccccc3c2=O)cc1 has what pIC50?
6.19

For the molecule shown here, Cc1ccc2nc(-c3cccc(Br)c3)[nH]c(=S)c2c1 , give the reported pIC50.
5.28

Any idea what its pIC50 is? The molecule is CC(Sc1nc2ccccc2c(=O)n1CCc1ccc(S(N)(=O)=O)cc1)C(=O)Nc1ccccc1 (stereo not drawn)
6.17

Sample Cc1ccc2nc(-c3cccc(Br)c3)n(O)c(=O)c2c1 — what was its pIC50?
5.20

Item Cc1ccc(NC(=O)c2cccc(Br)c2)c(C(=O)O)c1 has what recorded pIC50?
4.94

# pIC50 lookup, item CC(=O)c1ccc(NC(=O)CSc2nc3ccccc3c(=O)n2CCc2ccc(S(N)(=O)=O)cc2)cc1
6.74

Item Cc1ccc(NC(=O)CSc2nc3ccccc3c(=O)n2CCc2ccc(S(N)(=O)=O)cc2)cc1 has what recorded pIC50?
6.80

// query pIC50 value for entry NS(=O)(=O)c1ccc(CCn2c(SCC(=O)Nc3ccc(Br)cc3)nc3ccccc3c2=O)cc1
5.76

Need pIC50 of NS(=O)(=O)c1ccc(CCn2c(SCC(=O)Nc3ccc(Cl)cc3)nc3ccccc3c2=O)cc1 , thanks.
5.98

* * *

Target: CDK9/cyclin T (Homo sapiens, UniProt P50750)
Assay: In vitro luminescent CDK9 kinase assay (Kinase-Glo MAX)
Format: biochemical
Conditions: CDK9 IC50 as used for LE and LLE; read-out: IC50 (CDK9, Table 4)
ATTRIBUTE MEASURED: pIC50
// field semantics: pIC50 = negative decimal log of concentration (mol/L)

{"columns": ["COMPOUND", "ASSAY SYSTEM", "VAL"],
 "data": [
  ["Cc1ccc2nc(-c3cccc(Br)c3)[nH]c(=S)c2c1", "CDK9/cyclin T (Homo sapiens, UniProt P50750)", 6.54],
  ["COc1ccc(NC(=O)CSc2nc3ccccc3c(=O)n2CCc2ccc(S(N)(=O)=O)cc2)cc1", "CDK9/cyclin T (Homo sapiens, UniProt P50750)", 6.33]
]}

I would be grateful if you could share the reported pIC50 for CCOc1ccc(NC(=O)CSc2nc3ccccc3c(=O)n2CCc2ccc(S(N)(=O)=O)cc2)cc1 .
6.94

Any idea what its pIC50 is? The compound is O=c1[nH]cnc2ccc(I)cc12
6.19

Give its pIC50 value. Item: Cc1ccc(NC(=O)CSc2nc3ccccc3c(=O)n2CCc2ccc(S(N)(=O)=O)cc2)cc1
6.10

* * *

Biological target: CDK9/cyclin T (Homo sapiens, UniProt P50750)
Assay: In vitro luminescent CDK9 kinase assay (Kinase-Glo MAX)
Assay type: biochemical
Details: CDK9 IC50 as used for LE and LLE; read-out: IC50 (CDK9, Table 4)
ATTRIBUTE MEASURED: pIC50
# log scale: pIC50 equals minus log10 of the concentration in mol/L

// solved cases for pIC50 follow
{"columns": ["MOLECULE", "pIC50"],
 "data": [
  ["NS(=O)(=O)c1ccc(CCn2c(SCC(=O)NCc3ccc(F)cc3)nc3ccccc3c2=O)cc1", 6.66],
  ["Cc1ccc2nc(-c3cccc(Br)c3)n(N)c(=O)c2c1", 6.08],
  ["COc1cc(NC(=O)CSc2nc3ccccc3c(=O)n2CCc2ccc(S(N)(=O)=O)cc2)cc(OC)c1OC", 6.30],
  ["COc1ccc(CNC(=O)CSc2nc3ccccc3c(=O)n2CCc2ccc(S(N)(=O)=O)cc2)cc1OC", 6.64],
  ["Cc1ccc2nc(-c3cccc(Br)c3)oc(=O)c2c1", 6.31],
  ["NS(=O)(=O)c1ccc(CCn2c(SCC(=O)Nc3ccccc3)nc3ccccc3c2=O)cc1", 6.38]
]}

Request: pIC50, test system CDK9/cyclin T (Homo sapiens, UniProt P50750), entry O=c1[nH]c(-c2cccs2)nc2ccc(I)cc12
6.53

Enter reported pIC50 observed with CDK9/cyclin T (Homo sapiens, UniProt P50750) for NS(=O)(=O)c1ccc(CCn2c(=S)[nH]c3ccccc3c2=O)cc1
6.19

* * *

Biological target: CDK9/cyclin T (Homo sapiens, UniProt P50750)
Test: In vitro luminescent CDK9 kinase assay (Kinase-Glo MAX)
Assay type: biochemical
Details: CDK9 IC50 as used for LE and LLE; read-out: IC50 (CDK9, Table 4)
ATTRIBUTE MEASURED: pIC50
Reminder that pIC50 is minus the log10 of a molar concentration.

{"columns": ["MOLECULE", "ASSAY SYSTEM", "VAL"],
 "data": [
  ["CC(=O)c1ccc(NC(=O)CSc2nc3ccccc3c(=O)n2CCc2ccc(S(N)(=O)=O)cc2)cc1", "CDK9/cyclin T (Homo sapiens, UniProt P50750)", 6.08]
]}

What does the record list as pIC50 for Cc1ccc2nc(-c3cccc(Br)c3)[nH]c(=O)c2c1 ?
6.85

What value of measured pIC50 is listed for NS(=O)(=O)c1ccc(CCn2c(SCC(=O)Nc3ccc(Br)cc3)nc3ccccc3c2=O)cc1 ?
6.88

pIC50 lookup needed for O=c1[nH]c(-c2ccc(Cl)cc2)nc2ccc([N+](=O)[O-])cc12 , thanks.
6.36

* * *

Target: CDK9/cyclin T (Homo sapiens, UniProt P50750)
Assay: In vitro luminescent CDK9 kinase assay (Kinase-Glo MAX)
Assay type: biochemical
Conditions: mean ± SD; read-out: CDK9 IC50
Threshold check on IC50: strictly below 500 nM is 1.0; on or above 500 nM is 0.0.

{"columns": ["COMPOUND", "ASSAY SYSTEM", "CATEGORY"],
 "data": [
  ["COc1ccc(CNC(=O)CSc2nc3ccccc3c(=O)n2CCc2ccc(S(N)(=O)=O)cc2)cc1", "CDK9/cyclin T (Homo sapiens, UniProt P50750)", 1.0],
  ["O=c1[nH]cnc2ccc(I)cc12", "CDK9/cyclin T (Homo sapiens, UniProt P50750)", 0.0],
  ["CC(Sc1nc2ccccc2c(=O)n1CCc1ccc(S(N)(=O)=O)cc1)C(=O)Nc1ccc(Cl)cc1 (centres unmarked)", "CDK9/cyclin T (Homo sapiens, UniProt P50750)", 1.0],
  ["NC(=O)CSc1nc2ccccc2c(=O)n1CCc1ccc(S(N)(=O)=O)cc1", "CDK9/cyclin T (Homo sapiens, UniProt P50750)", 1.0],
  ["NS(=O)(=O)c1ccc(CCn2c(SCC(=O)Nc3ccc(Cl)cc3)nc3ccccc3c2=O)cc1", "CDK9/cyclin T (Homo sapiens, UniProt P50750)", 1.0]
]}

I'd appreciate it if you could check whether NS(=O)(=O)c1ccc(CCn2c(=S)[nH]c3ccccc3c2=O)cc1 has IC50 smaller than 500 nM.
0.0
